Data credit: paper PMC7956174

Target: CbFDH (Candida boidinii formate dehydrogenase) ([Candida] boidinii, UniProt O13437)
Construct: gene FDH1; no tag told
Sequence (O13437 1-364): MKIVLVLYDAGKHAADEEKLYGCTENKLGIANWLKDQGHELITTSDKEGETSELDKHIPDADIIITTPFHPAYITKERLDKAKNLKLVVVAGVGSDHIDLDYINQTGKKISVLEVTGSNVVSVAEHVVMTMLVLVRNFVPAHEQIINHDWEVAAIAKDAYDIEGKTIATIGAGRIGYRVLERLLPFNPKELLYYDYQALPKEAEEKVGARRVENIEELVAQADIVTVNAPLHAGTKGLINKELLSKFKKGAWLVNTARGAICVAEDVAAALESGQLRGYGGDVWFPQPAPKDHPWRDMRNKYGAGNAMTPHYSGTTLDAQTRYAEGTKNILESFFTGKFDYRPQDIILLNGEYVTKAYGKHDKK
Test: steady-state inhibition kinetics
Assay type: biochemical
Details: read-out: Ki (mM) (NADH)
outcome-measure: Ki (mM)
Give bare numbers, in mM.

QUERY: What value of Ki has been reported for the following compound? `NC(=O)C1=CN([C@@H]2O[C@H](COP(=O)(O)OP(=O)(O)OC[C@H]3O[C@@H](n4cnc5c(N)ncnc54)[C@H](O)[C@@H]3O)[C@@H](O)[C@H]2O)C=CC1`
RESULT: 0.03
